- Assay: self-splicing fitness, log relative to wild type (ln ratio); higher = more splicing; Tetrahymena group I intron in knt gene, E. coli kanamycin selection, DiMSum; sequences stand for … in CUCUCU…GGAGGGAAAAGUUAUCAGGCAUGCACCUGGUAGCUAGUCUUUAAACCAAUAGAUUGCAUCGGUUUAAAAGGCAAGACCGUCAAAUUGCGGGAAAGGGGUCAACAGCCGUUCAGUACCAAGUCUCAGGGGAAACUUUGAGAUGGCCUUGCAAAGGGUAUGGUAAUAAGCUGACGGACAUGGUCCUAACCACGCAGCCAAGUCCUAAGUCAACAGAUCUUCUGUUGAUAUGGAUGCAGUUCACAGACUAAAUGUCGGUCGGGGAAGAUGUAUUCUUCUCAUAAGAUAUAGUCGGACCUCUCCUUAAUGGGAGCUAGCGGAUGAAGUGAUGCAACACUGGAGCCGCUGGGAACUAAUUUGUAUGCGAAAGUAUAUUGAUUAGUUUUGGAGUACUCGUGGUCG;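 further: selection with 25 µg/mL kanamycin versus none on LB agar overnight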
- Measurement conditions: 37 °C
Measured self-splicing fitness (ln), listed per entry for reference.
Could you keep your reply to the number by itself?

| Primary sequence | self-splicing fitness (ln) |
| --- | --- |
| CAGGAGCAAUAUUACGCAUG | -1.89 |
| AUCAAGCAAUAUUACGCGGC | -1.98 |
| CAAAAGCAAUAUUACGAACG | 0.483 |
| GGCGAGCAAUAUUACGCAAG | -2.3 |
| UGUAAGCAAUAUUACGUUGG | -1.46 |
| CUACAGCAAUAUUACGAGUA | -1.71 |

Here is the next item to consider.
Please fill in: self-splicing fitness (ln) reported for GUGCAGCAAUAUUACGAUAA = -1.04

Just for reference, the supplement of paper PMC7877785 is where these values come from.
